Data provenance is patent US4636569A.

- assay-notes: Acute toxicity in mice (oral route)
- Format: in vivo
- experimental-parameters: mouse, in vivo
Where a name gives a salt, the structure may show the parent alone.
observable: LD50 (mg/kg)
# number only, unit mg/kg dropped from output

Request: Specify reported LD50 for the molecule shown: CN(Cc1cc(Br)cc(Br)c1N)C1CCCCC1 [Bromhexine HCl, bromhexine hydrochloride]
Result: 2140
